Value source: patent US4690891A

# Test system: xanthan depolymerase
# Test details: Inhibition of xanthan depolymerase activity, assayed viscosimetrically
# Assay type: biochemical, Bacillus sp. (culture NRRL B-15992)
Exercise: for every item that follows, state its recorded % Inhibition.
Number only, in %; omit the unit.

Q: Consider the molecule O=C(O)CI . State its measured % Inhibition.
Result: 0

Q: Supply recorded % Inhibition for c1c[nH]cn1 here.
Result: 30

Q: State its % Inhibition: O=C(O)CN(CCN(CC(=O)O)CC(=O)O)CC(=O)O
Result: 0

Q: Write down % Inhibition measured for item [Cl][Fe]([Cl])[Cl] [ferric chloride]
Result: 100

Q: Give reported % Inhibition value for Oc1cccc2cccnc12 [8-hydroxyquinoline]
Result: 0

* * *

# Tested on: xanthan depolymerase
# Test details: Inhibition of xanthan depolymerase activity, assayed viscosimetrically
# Assay type: biochemical, Bacillus sp. (culture NRRL B-15992)
# Condition notes: inhibitor 1 mM
Reported metric: % Inhibition (%)
Provide the reading as a plain figure in %.

Q: For the molecule CCN1C(=O)C=CC1=O [N--ethylmaleimide] , give its measured % Inhibition value.
Result: 40

Q: Complete the entry with % Inhibition for [N-]=[N+]=[N-] [sodium azide]
Result: 0

Q: Identify the reported % Inhibition for the following entry. NC(=O)CI [iodoacetamide]
Result: 0

Q: Fill in % Inhibition for record NNC(N)=S [thiosemicarbazide]
Result: 20

* * *

# System: xanthan depolymerase
# Test details: Inhibition of xanthan depolymerase activity, assayed viscosimetrically
# Format: biochemical, Bacillus sp. (culture NRRL B-15992)
# Condition notes: inhibitor 1 mM
Reported metric: % Inhibition
In your response, the unit should come after the numeric value.

Q: Using the record for c1ccc(-c2ccccn2)nc1 , state its measured % Inhibition.
Result: 30%

Q: Item O=C(O)c1cc(SSc2ccc([N+](=O)[O-])c(C(=O)O)c2)ccc1[N+](=O)[O-] : provide % Inhibition
Result: 0%

Q: For O=C(O)c1cc[c]([Hg+])cc1.[OH-] [p-hydroxymercuribenzoate] , write its % Inhibition.
Result: 40%

Q: Please report the measured % Inhibition for NC(N)=S
Result: 20%

Q: Specify % Inhibition for c1cnc2c(c1)ccc1cccnc12 and stop.
Result: 0%

* * *

# Tested on: xanthan depolymerase
# Test details: Inhibition of xanthan depolymerase activity, assayed viscosimetrically
# Type: biochemical, Bacillus sp. (culture NRRL B-15992)
# Condition notes: 100 ppm
Reported metric: inhibition of xanthan depolymerase activity

Worked examples, 5 compounds total:
Compound | Result
O=C(CCl)c1ccc(O)c(O)c1 [α-chloro-3,4-dihydroxyacetophenone] | not inhibited
[Na+].[O-]c1cc(Cl)c(Cl)cc1Cl [Dowicide B, sodium trichlorophenate] | failed to inhibit
OCl [sodium hypochlorite] | not inhibited
N#CSCSC#N [MBT 3522, methylene bisthiocyanate] | failed to inhibit
N#CC(Br)(Br)C(N)=O [dow Antimicrobial 7287, 2,2-dibromo-3-nitrilopropionamide] | failed to inhibit

Q: Input Clc1ccccc1 , output reported inhibition of xanthan depolymerase activity.
Result: not inhibited

Q: Let me know recorded inhibition of xanthan depolymerase activity for O=S([O-])S(=O)[O-].[Na+].[Na+] [Na2 S2 O4, sodium dithionite] , thanks.
Result: not inhibited
